For each entry below, report its IC50 value.
- measurement target: VEGFR2 (Homo sapiens, UniProt P35968)
- Construct: purchased Carna 08-191
- Sequence (P35968 20-1356): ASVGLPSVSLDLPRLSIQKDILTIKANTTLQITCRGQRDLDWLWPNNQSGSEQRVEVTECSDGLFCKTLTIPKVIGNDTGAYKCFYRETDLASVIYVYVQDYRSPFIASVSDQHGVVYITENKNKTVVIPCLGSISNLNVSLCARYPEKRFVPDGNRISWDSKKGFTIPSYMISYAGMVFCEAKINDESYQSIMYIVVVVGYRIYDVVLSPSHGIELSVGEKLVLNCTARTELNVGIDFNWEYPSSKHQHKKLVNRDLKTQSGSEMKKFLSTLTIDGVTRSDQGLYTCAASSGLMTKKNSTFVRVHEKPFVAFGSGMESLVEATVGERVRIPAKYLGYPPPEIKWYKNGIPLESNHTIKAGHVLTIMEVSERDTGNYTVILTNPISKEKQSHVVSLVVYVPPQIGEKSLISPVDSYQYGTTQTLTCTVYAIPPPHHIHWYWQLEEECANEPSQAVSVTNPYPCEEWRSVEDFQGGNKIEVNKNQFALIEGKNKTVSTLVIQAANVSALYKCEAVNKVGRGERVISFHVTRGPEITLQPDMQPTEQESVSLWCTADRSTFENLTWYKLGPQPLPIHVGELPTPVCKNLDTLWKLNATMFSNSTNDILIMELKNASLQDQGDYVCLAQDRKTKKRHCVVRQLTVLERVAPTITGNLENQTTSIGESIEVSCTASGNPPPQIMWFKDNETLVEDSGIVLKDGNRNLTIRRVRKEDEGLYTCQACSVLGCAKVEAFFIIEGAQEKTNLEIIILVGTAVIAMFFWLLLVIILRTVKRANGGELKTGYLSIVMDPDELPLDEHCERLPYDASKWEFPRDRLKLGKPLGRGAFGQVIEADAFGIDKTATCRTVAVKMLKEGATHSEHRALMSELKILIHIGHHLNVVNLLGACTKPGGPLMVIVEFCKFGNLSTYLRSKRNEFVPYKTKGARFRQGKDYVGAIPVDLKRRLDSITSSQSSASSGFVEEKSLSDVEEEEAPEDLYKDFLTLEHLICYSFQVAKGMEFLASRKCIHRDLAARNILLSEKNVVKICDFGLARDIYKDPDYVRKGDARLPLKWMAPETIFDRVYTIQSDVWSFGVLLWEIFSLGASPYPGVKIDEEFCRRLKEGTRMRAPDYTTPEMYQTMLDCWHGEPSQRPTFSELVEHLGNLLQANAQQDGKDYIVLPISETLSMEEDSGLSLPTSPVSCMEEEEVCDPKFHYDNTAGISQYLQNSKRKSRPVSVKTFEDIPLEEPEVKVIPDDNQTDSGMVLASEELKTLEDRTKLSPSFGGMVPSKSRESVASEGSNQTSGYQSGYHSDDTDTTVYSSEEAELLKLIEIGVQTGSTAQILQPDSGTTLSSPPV
- test details: Assay I: kinase inhibition (HTRF KinEASE-TK), VEGFR2
- Assay type: biochemical
- run parameters: Table 1; ATP working concentration 5 μM, substrate TK 1 μM

In: Quick check: IC50 of CC(Oc1ccc2[nH]nc(C(=O)Nc3ccc(N4C[C@@H](C)N[C@@H](C)C4)nc3)c2c1)c1c(Cl)cncc1Cl (stereo partly shown) [Compound 8] ?
Out: 224 nM

In: Quick check: IC50 of CC(Oc1ccc2[nH]nc(C(=O)Nc3ccc(N4CCC(O)CC4)cc3)c2c1)c1c(Cl)cncc1Cl (stereo not shown) [Compound 13] ?
Out: > 10000 nM

In: Quick check: IC50 of CC(Oc1ccc2[nH]nc(C(=O)Nc3cnn(C4CCN(C)CC4)c3)c2c1)c1c(Cl)cncc1Cl (stereo not shown) [Compound 14] ?
Out: 24.7 nM

In: Quick check: IC50 of CC(Oc1ccc2[nH]nc(C(=O)Nc3cnn(C4CC(O)C4)c3)c2c1)c1c(Cl)cncc1Cl (stereo not shown) [Compound 12] ?
Out: 208 nM

----------
- measurement target: FGFR3 V555M (Homo sapiens, UniProt P22607, V555M)
- Construct: purchased Signalchem F06-12GG
- Sequence (P22607 23-806 V555M): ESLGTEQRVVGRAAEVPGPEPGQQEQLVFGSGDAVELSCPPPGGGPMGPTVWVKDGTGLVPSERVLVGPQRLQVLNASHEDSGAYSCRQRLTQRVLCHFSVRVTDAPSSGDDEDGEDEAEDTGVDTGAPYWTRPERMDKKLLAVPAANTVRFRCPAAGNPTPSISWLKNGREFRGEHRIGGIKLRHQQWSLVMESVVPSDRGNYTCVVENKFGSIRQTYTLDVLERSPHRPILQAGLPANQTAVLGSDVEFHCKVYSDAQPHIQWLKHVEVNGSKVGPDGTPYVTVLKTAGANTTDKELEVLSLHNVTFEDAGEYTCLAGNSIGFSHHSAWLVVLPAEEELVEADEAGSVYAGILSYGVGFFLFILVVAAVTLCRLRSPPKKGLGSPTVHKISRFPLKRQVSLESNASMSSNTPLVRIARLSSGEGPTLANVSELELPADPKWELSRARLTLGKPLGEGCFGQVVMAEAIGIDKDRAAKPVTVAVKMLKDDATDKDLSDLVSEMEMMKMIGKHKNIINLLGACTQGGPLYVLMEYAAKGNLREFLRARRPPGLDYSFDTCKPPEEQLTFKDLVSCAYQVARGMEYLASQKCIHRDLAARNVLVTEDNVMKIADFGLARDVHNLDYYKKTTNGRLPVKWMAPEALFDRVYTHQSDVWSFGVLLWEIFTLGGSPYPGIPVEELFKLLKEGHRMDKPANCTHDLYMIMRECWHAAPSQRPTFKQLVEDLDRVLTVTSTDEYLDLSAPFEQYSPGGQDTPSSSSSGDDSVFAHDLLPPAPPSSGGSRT
- test details: Assay I: inhibitory activity against FGFR mutants (HTRF KinEASE-TK)
- Format: biochemical
- run parameters: Table 1; ATP working concentration 20 μM, substrate TK 1 μM
Threshold 6 nM. IC50 below it: 1. IC50 at it or above: -1.

In: Please state whether IC50 is below 6 nM for CC(Oc1ccc2[nH]nc(C(=O)Nc3ccc(N4C[C@@H](C)N[C@@H](C)C4)c(F)c3)c2c1)c1c(Cl)cncc1Cl (stereo partly drawn)
Out: -1

In: Please state whether IC50 is below 6 nM for C[C@@H](Oc1ccc2[nH]nc(C(=O)Nc3cnn(CCO)c3)c2c1)c1c(Cl)cncc1Cl
Out: 1

In: Please state whether IC50 is below 6 nM for CCN1CCN(c2ccc(NC(=O)c3n[nH]c4ccc(OC(C)c5c(Cl)cncc5Cl)cc34)cc2)CC1 (stereo not drawn)
Out: 1

In: Please state whether IC50 is below 6 nM for CC(Oc1ccc2[nH]nc(C(=O)Nc3cnn(C4CN(C)C4)c3)c2c1)c1c(Cl)cncc1Cl (stereo not drawn)
Out: 1

In: Please state whether IC50 is below 6 nM for CC(Oc1ccc2[nH]nc(C(=O)Nc3cnn(CCC#N)c3)c2c1)c1c(Cl)cncc1Cl (stereo not drawn)
Out: 1

In: Please state whether IC50 is below 6 nM for CC(Oc1ccc2[nH]nc(C(=O)Nc3ccc(N4C[C@@H](C)N[C@@H](C)C4)nc3)c2c1)c1c(Cl)cncc1Cl (stereo partly drawn)
Out: 1

In: Please state whether IC50 is below 6 nM for CC(Oc1ccc2[nH]nc(C(=O)Nc3ccc(N4C[C@@H](C)N[C@@H](C)C4)cn3)c2c1)c1c(Cl)cncc1Cl (stereo partly drawn)
Out: -1

In: Please state whether IC50 is below 6 nM for CCn1cc(NC(=O)c2n[nH]c3ccc(OC(C)c4c(Cl)cncc4Cl)cc23)cn1 (stereo not drawn)
Out: 1

In: Please state whether IC50 is below 6 nM for CC(Oc1ccc2[nH]nc(C(=O)Nc3ccc(N4CCN(C)CC4)cc3)c2c1)c1c(Cl)cncc1Cl (stereo not drawn)
Out: 1

In: Please state whether IC50 is below 6 nM for CC(Oc1ccc2[nH]nc(C(=O)Nc3ccc(N4C[C@@H](C)N[C@@H](C)C4)cc3)c2c1)c1c(Cl)cncc1Cl (stereo partly drawn)
Out: -1

In: Please state whether IC50 is below 6 nM for CCN1CCC(c2ccc(NC(=O)c3n[nH]c4ccc(OC(C)c5c(Cl)cncc5Cl)cc34)cc2)CC1 (stereo not drawn)
Out: 1
